Data credit: patent US4330542A

# methodNotes: Acute toxicity in the rat, intravenous route
# reportedConditions: in vivo

compound | LD50 [mg/kg]
C=CCOc1ccccc1N(CC(O)CN1CCN(Cc2ccccc2)CC1)S(=O)(=O)c1ccc(C)cc1 (stereo not shown) | 12
